- experiment-description: Pharmacokinetic evaluation in mice
- Assay type: in vivo
- conditions: plasma; mouse IV 1 mg/kg
assay-metric: half-life (h)

>>> print(df.to_string())
                                   molecule  observed_measurement
0  O=C(COc1ccc(Cl)c(F)c1)NC1CC2(C1)CC(c1nnc(N3CC(OC(F)(F)F)C3)o1)C2 (stereo not shown)                  2.07

----------
- experiment-description: Pharmacokinetic evaluation in mice
- Type: in vivo
- conditions: plasma; mouse PO 30 mg/kg
assay-metric: AUC(0-inf) (µg·h/mL)

                                   compound  assay_metric  result_unit  observed_measurement
0  O=C(COc1ccc(Cl)c(F)c1)NC1CC2(C1)CC(c1nnc(N3CC(OC(F)(F)F)C3)o1)C2 (stereo not shown)    AUC(0-inf)      µg·h/mL                   111

----------
- experiment-description: Pharmacokinetic evaluation in mice
- Type: in vivo
- conditions: plasma; mouse PO 30 mg/kg
assay-metric: Tmax (h)

>>> df
                                   compound  observed_measurement
0  O=C(COc1ccc(Cl)c(F)c1)NC1CC2(C1)CC(c1nnc(N3CC(OC(F)(F)F)C3)o1)C2 (stereo not shown) [III-1]                  1.33

----------
- system: eIF2B (Homo sapiens, UniProt P49770+Q9UI10)
- Construct: endogenous in cells; host or cells: HEK293T/17-ATF4 uORF-Luc-Puro monoclonal cells
- Sequence (P49770 whole entry): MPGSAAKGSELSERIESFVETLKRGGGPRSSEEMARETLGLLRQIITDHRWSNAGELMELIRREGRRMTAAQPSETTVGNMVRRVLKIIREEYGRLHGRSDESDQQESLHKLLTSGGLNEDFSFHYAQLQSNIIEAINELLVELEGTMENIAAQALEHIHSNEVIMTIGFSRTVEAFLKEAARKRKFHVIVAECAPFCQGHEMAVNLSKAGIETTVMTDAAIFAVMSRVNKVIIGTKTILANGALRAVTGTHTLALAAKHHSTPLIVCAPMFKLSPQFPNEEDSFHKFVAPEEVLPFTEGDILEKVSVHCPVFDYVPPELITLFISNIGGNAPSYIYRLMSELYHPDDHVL
- Sequence (Q9UI10 whole entry): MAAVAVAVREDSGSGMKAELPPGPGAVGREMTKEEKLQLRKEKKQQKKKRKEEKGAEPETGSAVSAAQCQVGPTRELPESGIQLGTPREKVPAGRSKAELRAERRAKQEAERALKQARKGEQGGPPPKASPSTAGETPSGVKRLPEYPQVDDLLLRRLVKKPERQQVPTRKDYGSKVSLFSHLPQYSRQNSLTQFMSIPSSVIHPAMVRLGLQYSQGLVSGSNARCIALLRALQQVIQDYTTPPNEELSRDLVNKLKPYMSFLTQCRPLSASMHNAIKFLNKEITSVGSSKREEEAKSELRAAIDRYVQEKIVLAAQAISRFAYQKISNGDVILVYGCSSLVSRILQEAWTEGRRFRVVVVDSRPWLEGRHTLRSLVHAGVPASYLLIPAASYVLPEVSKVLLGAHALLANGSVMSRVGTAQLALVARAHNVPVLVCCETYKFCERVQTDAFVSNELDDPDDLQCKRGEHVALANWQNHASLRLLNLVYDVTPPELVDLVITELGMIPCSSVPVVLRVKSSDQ
- Sequence (Q14232 whole entry partner): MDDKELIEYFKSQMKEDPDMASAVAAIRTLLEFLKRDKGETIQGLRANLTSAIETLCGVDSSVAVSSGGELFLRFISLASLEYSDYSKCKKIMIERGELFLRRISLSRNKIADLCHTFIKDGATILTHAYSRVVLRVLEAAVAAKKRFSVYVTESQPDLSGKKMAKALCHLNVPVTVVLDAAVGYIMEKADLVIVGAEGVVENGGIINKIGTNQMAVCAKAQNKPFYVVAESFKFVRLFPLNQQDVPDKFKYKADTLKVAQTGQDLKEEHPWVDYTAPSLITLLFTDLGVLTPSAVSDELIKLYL
- Sequence (Q9NR50 whole entry partner): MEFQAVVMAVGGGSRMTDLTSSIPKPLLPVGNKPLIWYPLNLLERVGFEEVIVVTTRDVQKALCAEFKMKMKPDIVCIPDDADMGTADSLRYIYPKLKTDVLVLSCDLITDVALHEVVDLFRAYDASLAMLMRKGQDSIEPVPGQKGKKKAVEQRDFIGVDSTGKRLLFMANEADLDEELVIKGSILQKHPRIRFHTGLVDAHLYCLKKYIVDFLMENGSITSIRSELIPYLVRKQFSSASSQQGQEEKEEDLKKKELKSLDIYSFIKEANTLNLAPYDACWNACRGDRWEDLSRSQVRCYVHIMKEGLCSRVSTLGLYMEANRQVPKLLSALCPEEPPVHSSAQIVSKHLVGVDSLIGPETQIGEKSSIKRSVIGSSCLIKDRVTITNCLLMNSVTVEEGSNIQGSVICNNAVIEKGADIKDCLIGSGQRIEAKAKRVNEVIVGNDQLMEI
- Sequence (Q13144 whole entry partner): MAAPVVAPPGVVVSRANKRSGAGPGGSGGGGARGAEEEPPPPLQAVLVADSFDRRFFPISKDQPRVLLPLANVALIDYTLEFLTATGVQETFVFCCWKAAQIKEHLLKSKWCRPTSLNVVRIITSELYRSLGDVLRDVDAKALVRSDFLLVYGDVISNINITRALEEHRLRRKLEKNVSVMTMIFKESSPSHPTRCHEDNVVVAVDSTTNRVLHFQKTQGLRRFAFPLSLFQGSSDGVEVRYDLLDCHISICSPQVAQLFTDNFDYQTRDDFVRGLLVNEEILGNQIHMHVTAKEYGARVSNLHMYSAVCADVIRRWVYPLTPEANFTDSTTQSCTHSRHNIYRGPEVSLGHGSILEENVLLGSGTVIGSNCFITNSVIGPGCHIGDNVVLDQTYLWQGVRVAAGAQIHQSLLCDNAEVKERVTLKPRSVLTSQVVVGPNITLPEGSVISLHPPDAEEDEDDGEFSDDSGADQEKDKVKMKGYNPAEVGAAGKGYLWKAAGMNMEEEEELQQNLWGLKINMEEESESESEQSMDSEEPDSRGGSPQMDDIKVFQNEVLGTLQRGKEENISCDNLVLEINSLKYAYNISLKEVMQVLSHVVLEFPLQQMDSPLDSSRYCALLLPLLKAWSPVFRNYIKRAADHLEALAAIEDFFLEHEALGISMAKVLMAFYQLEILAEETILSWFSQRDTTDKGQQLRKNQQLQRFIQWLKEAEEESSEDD
- experiment-description: ATF4-Luc assay (ATF4 luciferase reporter, thapsigargin-induced stress)
- Assay type: cell-based
- conditions: HEK293T/17-ATF4 uORF-Luc-Puro monoclonal cells, 50 nM thapsigargin, incubated for 6 hours
pEC50: −log10 of the molar value.
assay-metric: pEC50

In [3]: df
Out[3]:
                                    compound  assay_metric  observed_measurement
 0  CN1C[C@H](C(=O)NN2CCC3(CC2)CC3NC(=O)COc2ccc(Cl)c(F)c2)Oc2ccc(Cl)cc21 (stereo partly shown)         pEC50                < 7.00
 1  CN1CC(C(=O)NC2CC3(CC(NC(=O)COc4ccc(Cl)c(F)c4)C3)C2)Oc2ccc(Cl)cc21 (stereo not shown)         pEC50                < 7.00
 2  O=C(COc1ccc(Cl)c(F)c1)NC1CC2(CCN(C(=O)c3cc4cc(Cl)ccc4o3)CC2)C1         pEC50          7.00 to 8.00
 3  O=C(COc1ccc(Cl)c(F)c1)NC1CCC(c2nnc(N3CC(OC(F)(F)F)C3)o2)C2(CC2)C1 (stereo not shown)         pEC50                > 8.00
 4  O=C(NC1CC2(CCN(C(=O)[C@@H]3CNc4cc(Cl)ccc4O3)CC2)C1)[C@H]1CNc2cc(Cl)ccc2O1         pEC50          7.00 to 8.00
 5  O=C(CO[C@H]1C[C@@H](OC(F)(F)F)C1)NC1CC2(CCN(C(=O)c3cc4cc(Cl)ccc4o3)CC2)C1         pEC50                < 7.00
 6  O=C(COc1ccc(Cl)c(F)c1)NC1COC2(C1)CN(C(=O)COc1ccc(Cl)c(F)c1)C2 (stereo not shown)         pEC50                < 7.00
 7  O=C(COc1ccc(Cl)c(F)c1)NC1CC2(C1)CC(NC(=O)c1cnc(C(F)F)cn1)C2 (stereo not shown)         pEC50                < 7.00
 8  CN1C[C@H](C(=O)N2CCC3(CC2)CC(NC(=O)COc2ccc(Cl)c(F)c2)C3)Oc2ccc(Cl)cc21         pEC50                < 7.00
 9  O=C(COc1ccc(Cl)c(F)c1)NC1CC12CCN(C(=O)c1cnc(C(F)F)cn1)CC2 (stereo not shown)         pEC50                < 7.00
10  O=C(COc1ccc(Cl)c(F)c1)NC1CC12CCN(NC(=O)c1cc3cc(Cl)ccc3o1)CC2 (stereo not shown)         pEC50                < 7.00
11  O=C(COc1ccc(Cl)c(F)c1)NC1CC2(CCN(c3nnc(-c4ccc(Cl)cc4)o3)CC2)C1         pEC50          7.00 to 8.00
12  CN1C[C@H](C(=O)N2CCC3(CC2)CC3NC(=O)COc2ccc(Cl)c(F)c2)Oc2ccc(Cl)cc21 (stereo partly shown)         pEC50                < 7.00
13  O=C(COc1ccc(Cl)c(F)c1)NC1CC12CCN(C(=O)c1cc3cc(Cl)ccc3o1)CC2 (stereo not shown)         pEC50                < 7.00
14  O=C(COc1ccc(Cl)c(F)c1)NC1CC12CCN(C(=O)[C@H]1CNc3cc(Cl)ccc3O1)CC2 (stereo partly shown)         pEC50                < 7.00
15  O=C(COc1ccc(Cl)c(F)c1)NC1CC2(C1)CC(c1nnc(N3CC(OC(F)(F)F)C3)o1)C2 (stereo not shown)         pEC50                > 8.00

----------
- system: eIF2B (Homo sapiens, UniProt P49770+Q9UI10)
- Construct: endogenous in cells
- experiment-description: ATF4-Luc assay (ATF4 luciferase reporter, thapsigargin-induced stress)
- conditions: HEK293T/17-ATF4 uORF-Luc-Puro monoclonal cells, 50 nM thapsigargin, incubated for 6 hours
assay-metric: EC50

                                    molecule  observed_measurement
 0  O=C(NC1CC12CCN(NC(=O)c1cc3cc(Cl)ccc3o1)CC2)c1cc2cc(Cl)ccc2o1 (centres unmarked)          10 to 100 nM
 1  O=C(COc1ccc(Cl)c(F)c1)NC1CC2(CCN(c3nnc(N4CC(OC(F)(F)F)C4)o3)CC2)C1          10 to 100 nM
 2  O=C(NC1CC2(CCN(C(=O)c3cc4cc(Cl)ccc4o3)CC2)C1)c1cc2cc(Cl)ccc2o1               < 10 nM
 3  O=C(COc1ccc(Cl)c(F)c1)NC1CC2(CCN(C(=O)c3cnc(C(F)F)cn3)CC2)C1              > 100 nM
 4  O=C(COc1ccc(Cl)c(F)c1)NC1CCC2(CC1)CN(C(=O)C1CNc3cc(Cl)ccc3O1)C2 (centres unmarked)              > 100 nM
 5  CN1C[C@H](C(=O)N2CC3(CC(NC(=O)COc4ccc(Cl)c(F)c4)CO3)C2)Oc2ccc(Cl)cc21 (some centres unmarked)              > 100 nM
 6  O=C(COc1ccc(Cl)c(F)c1)NC1COC2(C1)CN(C(=O)c1cc3cc(Cl)ccc3o1)C2 (centres unmarked)          10 to 100 nM
 7  O=C(COc1ccc(Cl)c(F)c1)NC1CC12CCN(NC(=O)[C@H]1CNc3cc(Cl)ccc3O1)CC2 (some centres unmarked)              > 100 nM
 8  O=C(COc1ccc(Cl)c(F)c1)NC1COC2(C1)CN(C(=O)c1cnc(C(F)F)cn1)C2 (centres unmarked)              > 100 nM
 9  O=C(COc1ccc(Cl)c(F)c1)NC1CC2(C1)CC(NC(=O)COc1ccc(Cl)c(F)c1)C2 (centres unmarked)              > 100 nM
10  O=C(COc1ccc(Cl)c(F)c1)NC1CC2(CCC(c3nnc(N4CC(OC(F)(F)F)C4)o3)CC2)C1 (centres unmarked)          10 to 100 nM
